test system: Huh-7 HCV replicon cells (1b replicon); test: anti-HCV activity in Huh-7 cell line harboring a HCV replicon (luciferase readout); type: cell-based; details: Hepatitis C virus, Huh-7, read-out: Replicon 1b % inhibition at 1 μM, 1b replicon, 1 μM compound
Items are presented alongside their recorded inhibition at 1 µM.
Value expressed in %; do not type the unit.

C[C@@H]1NC(=O)[C@H]([C@@H](C)O)OC(=O)C(C)(C)/C=C/c2ccc3ccc(nc3c2)[C@@H](C)NC(=O)[C@@H]2CCCN(N2)C1=O    61
CC(F)[C@@H]1OC(=O)C(C)(C)/C=C/c2ccc3ccc(nc3c2)[C@@H](C)NC(=O)[C@@H]2CCCN(N2)C(=O)[C@H](C)NC1=O (stereo partly shown)    93
C[C@@H]1NC(=O)[C@H]([C@@H](C)OC(C)(C)C)OC(=O)C(C)(C)/C=C/c2ccc3ccc(nc3c2)[C@@H](C)NC(=O)[C@@H]2CCCN(N2)C1=O    93
CC(C)[C@@H]1OC(=O)[C@]2(/C=C/c3ccc4ccc(nc4c3)[C@@H](C)N(C)C(=O)[C@@H]3CCCN(N3)C(=O)[C@H](C)NC1=O)CC[C@H](O)CC2    96
CC(C)[C@@H]1OC(=O)C2(/C=C/c3ccc4ccc(nc4c3)[C@@H](C)NC(=O)[C@@H]3CCCN(N3)C(=O)[C@H](C)NC1=O)CCOCC2    100
CC(C)[C@@H]1OC(=O)C/C=C/c2cc3cc(ccc3cn2)[C@@H](C)NC(=O)[C@@H]2CCCN(N2)C(=O)[C@H](C)NC1=O    89
CC(C)[C@@H]1OC(=O)C2(/C=C/c3ccc4ccc(nc4c3)[C@@H](C)NC(=O)[C@@H]3CCCN(N3)C(=O)[C@H](C)NC1=O)CCCCO2 (mixture of isomers)    100
CC(C)C(=O)O[C@H]1CC[C@]2(/C=C/c3ccc4ccc(nc4c3)[C@@H](C)NC(=O)[C@@H]3CCCN(N3)C(=O)[C@H](C)NC(=O)[C@H](C(C)C)OC2=O)CC1    100

Ask | Please report the recorded inhibition at 1 µM for CC(C)[C@@H]1OC(=O)C2(/C=C/c3ccc4ccc(nc4c3)[C@@H](C)NC(=O)[C@@H]3CCCN(N3)C(=O)[C@H](C)NC1=O)CCOC2 (stereo partly shown) .
Reply | 97

Ask | I am curious: what inhibition at 1 µM value has been reported for `CC(C)[C@@H]1N[C@H](C(F)(F)F)C(C)(C)/C=C/c2ccc3ccc(nc3c2)[C@@H](C)OC(=O)[C@@H]2CCCN(N2)C(=O)[C@H](C)NC1=O` ?
Reply | 88

Ask | For the compound CC(C)[C@@H]1OC(=O)C2(/C=C/c3ccc4ccc(nc4c3)[C@@H](C)NC(=O)[C@@H]3CCCN(N3)C(=O)[C@H](C)NC1=O)CCC(C)(O)CC2 (stereo partly shown) , what inhibition at 1 µM is on record?
Reply | 82

Ask | // returns reported inhibition at 1 µM for input CC1/C=C/c2cc3cc(ccc3cn2)[C@@H](C)NC(=O)[C@@H]2CCCN(N2)C(=O)[C@H](C)NC(=O)[C@H](C(C)C)OC(=O)C1C (stereo partly shown)
Reply | 96

Ask | Consider the compound shown here: `C[C@@H]1NC(=O)[C@H](C2CC2)OC(=O)C2(/C=C/c3ccc4ccc(nc4c3)[C@@H](C)NC(=O)[C@@H]3CCCN(N3)C1=O)COCOC2` What is its recorded inhibition at 1 µM?
Reply | 99

Ask | Item under review: `C[C@@H]1NC(=O)[C@H](C(C)(C)F)OC(=O)C2(/C=C/c3ccc4ccc(nc4c3)[C@@H](C)NC(=O)[C@@H]3CCCN(N3)C1=O)COCOC2` . Reported inhibition at 1 µM?
Reply | -6

Ask | Request the reported inhibition at 1 µM associated with `CC(C)[C@@H]1OC(=O)C2(/C=C/c3ccc4ccc(nc4c3)[C@@H](C)NC(=O)[C@@H]3CCCN(N3)C(=O)[C@H](C)NC1=O)COCCOC2`
Reply | 100

###

The compounds listed here are annotated with their IC50.
biological target: cyclophilin A (Homo sapiens, UniProt P62937); test: Cyclophilin A TR-FRET competitive binding assay; details: competition with CsA-Cy5 for His-tagged CypA, two-hour incubation
Sequence (P62937 whole entry, species assumed): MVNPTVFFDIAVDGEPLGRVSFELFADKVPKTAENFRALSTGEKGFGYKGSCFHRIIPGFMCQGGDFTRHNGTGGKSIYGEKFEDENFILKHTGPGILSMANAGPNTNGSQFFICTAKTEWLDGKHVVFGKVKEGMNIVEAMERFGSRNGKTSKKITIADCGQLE

CC(C)[C@@H]1OC(=O)C2(/C=C/c3ccc4ccc(nc4c3)[C@@H](C)NC(=O)[C@@H]3CCCN(N3)C(=O)[C@H](C)NC1=O)CCCOC2 (single isomer, unassigned) [Compound 50]    < 100 nM
CON=C1CCC2(/C=C/c3ccc4ccc(nc4c3)[C@@H](C)NC(=O)[C@@H]3CCCN(N3)C(=O)[C@H](C)NC(=O)[C@H](C(C)C)OC2=O)CC1 (some centres unmarked)    < 100 nM
C[C@@H]1NC(=O)[C@H](C2CC2)OC(=O)C2(/C=C/c3ccc4ccc(nc4c3)[C@@H](C)NC(=O)[C@@H]3CCCN(N3)C1=O)CCC(O)CC2 (some centres unmarked)    < 100 nM

Ask | I am curious: what IC50 value has been reported for `CC(C)[C@H]1C(=O)N[C@@H](C)C(=O)N2CCC[C@H](N2)C(=O)N[C@H](C)c2cccc(c2)/C=C/CCCCC(=O)N1C` ?
Reply | 101 to 1000 nM

Ask | Please look up its IC50: CC([C@@H]1OC(=O)C(C)(C)/C=C/c2ccc3ccc(nc3c2)[C@@H](C)NC(=O)[C@@H]2CCCN(N2)C(=O)[C@H](C)NC1=O)C(F)(F)F (some centres unmarked)
Reply | < 100 nM

###

system: Huh-7 HCV replicon cells (1b replicon); test: anti-HCV activity in Huh-7 cell line harboring a HCV replicon (luciferase readout); type: cell-based; settings: Hepatitis C virus, Huh-7, read-out: Replicon 1b % inhibition at 1 μM, 1b replicon, 1 μM compound
measured-parameter: inhibition at 1 µM (%)
Give just the number in %; leave the unit off.

CCC[C@@H]1C/C=C/c2cc3cc(ccc3cn2)[C@@H](C)NC(=O)[C@@H]2CCCN(N2)C(=O)[C@H](C)NC(=O)[C@H](C(C)C)OC1=O    100
CC(CC[C@@H]1C/C=C/c2cc3cc(ccc3cn2)[C@@H](C)NC(=O)[C@@H]2CCCN(N2)C(=O)[C@H](C)NC(=O)[C@H](C(C)C)OC1=O)=NOCCN1CCOCC1 (mixture of isomers)    98
C[C@@H]1NC(=O)[C@H](C2CC2)OC(=O)C(C)(C)/C=C/c2ccc3ccc(nc3c2)[C@@H](C)NC(=O)[C@@H]2CCCN(N2)C1=O    99
C[C@@H]1NC(=O)[C@H](CC(F)F)OC(=O)C(C)(C)/C=C/c2ccc3ccc(nc3c2)[C@@H](C)NC(=O)[C@@H]2CCCN(N2)C1=O    84

With those in mind, consider the next compound.
Ask | Record request: inhibition at 1 µM value, item CC(=O)CC[C@@H]1C/C=C/c2cc3cc(ccc3cn2)[C@@H](C)NC(=O)[C@@H]2CCCN(N2)C(=O)[C@H](C)NC(=O)[C@H](C(C)C)OC1=O (mixture of isomers)
Reply | 100

###

pIC50 values recorded for cyclophilin A (Homo sapiens)
pIC50: −log10 of the molar value.

Ask | For CC(C)[C@@H]1OC(=O)[C@H](C)[C@H](O)CCCCc2cccc(c2)[C@@H](C)NC(=O)[C@@H]2CCCN(N2)C(=O)[C@H](C)NC1=O [Compound 10] , what is its reported pIC50?
Reply | > 7.00

Ask | Given CCC[C@@H]1C/C=C/c2cc3cc(ccc3cn2)[C@@H](C)NC(=O)[C@@H]2CCCN(N2)C(=O)[C@H](C)NC(=O)[C@H](C(C)C)OC1=O [Compound 4] , state its recorded pIC50.
Reply | > 7.00

Ask | I have this compound here, CCN1CCOC2(/C=C/c3ccc4ccc(nc4c3)[C@@H](C)NC(=O)[C@@H]3CCCN(N3)C(=O)[C@H](C)NC(=O)[C@H](C(C)C)OC2=O)C1 (stereo partly drawn) [Compound 96] , and I need its recorded pIC50.
Reply | > 7.00

Ask | // returns reported pIC50 for input C[C@@H]1NC(=O)[C@H](C2CCOCC2)OC(=O)C(C)(C)/C=C/c2ccc3ccc(nc3c2)[C@@H](C)NC(=O)[C@@H]2CCCN(N2)C1=O [Compound 67]
Reply | 6.00 to 7.00

Ask | Would you mind telling me what pIC50 value was observed for CC(C)[C@@H]1OC(=O)C2(/C=C/c3ccc4ccc(nc4c3)[C@@H](C)NC(=O)[C@@H]3CCCN(N3)C(=O)[C@H](C)NC1=O)CCCOC2 (single isomer, unassigned) [Compound 51] ?
Reply | > 7.00

Ask | Fill in: pIC50 of CC(C)[C@@H]1OC(=O)C2(/C=C/c3ccc4ccc(nc4c3)[C@@H](C)NC(=O)[C@]3(C)CCCN(N3)C(=O)[C@H](C)NC1=O)CCC(O)CC2 (mixture of isomers) [Compound 94] is ___
Reply | > 7.00

Ask | Would you mind telling me what pIC50 value was observed for CCC(=O)O[C@H]1CC[C@@]2(/C=C/c3ccc4ccc(nc4c3)[C@@H](C)NC(=O)[C@@H]3CCCN(N3)C(=O)[C@H](C)NC(=O)[C@H](C(C)C)OC2=O)CC1 [Compound 109] ?
Reply | > 7.00

Ask | Would you kindly share the measured pIC50 for CC(C)[C@@H]1OC(=O)C2(/C=C/c3ccc4ccc(nc4c3)[C@@H](C)NC(=O)[C@@H]3CCCN(N3)C(=O)[C@H](C)NC1=O)CCN(C(=O)OC(C)(C)C)CC2 [Compound 84] ?
Reply | 5.00 to 6.00

Ask | What does the record list as pIC50 for CC(C)C(=O)O[C@H]1CC[C@]2(/C=C/c3ccc4ccc(nc4c3)[C@@H](C)NC(=O)[C@@H]3CCCN(N3)C(=O)[C@H](C)NC(=O)[C@H](C(C)C)OC2=O)CC1 [Compound 81] ?
Reply | > 7.00

Ask | What does the record list as pIC50 for CC(C)[C@@H]1NCCC/C=C/c2cc3cc(ccc3cn2)[C@@H](C)OC(=O)[C@@H]2CCCN(N2)C(=O)[C@H](C)NC1=O [Compound 20] ?
Reply | 6.00 to 7.00

Ask | Given the compound CC(C)[C@@H]1OC(=O)[C@H](CCC(C)N(C)C)C/C=C/c2cc3cc(ccc3cn2)[C@@H](C)NC(=O)[C@@H]2CCCN(N2)C(=O)[C@H](C)NC1=O (mixture of isomers) [Compound 16] , what is its reported pIC50?
Reply | > 7.00

Ask | Recorded pIC50 of C[C@@H]1NC(=O)[C@H](C2CC2)OC(=O)C2(/C=C/c3ccc4ccc(nc4c3)[C@@H](C)NC(=O)[C@@H]3CCCN(N3)C1=O)COCOC2 [Compound 53] , please.
Reply | > 7.00

Ask | # input compound: CC(C)[C@@H]1OC(=O)CCc2ccc(cc2)-c2cccc(c2)[C@@H](C)NC(=O)[C@@H]2CCCN(N2)C(=O)[C@H](C)NC1=O [Compound 6] ; wanted: its pIC50
Reply | > 7.00

Ask | For CC(C)[C@@H]1OC(=O)[C@H](C)[C@H](O)CC/C=C/c2cccc(c2)[C@@H](C)NC(=O)[C@@H]2CCCN(N2)C(=O)[C@H](C)NC1=O [Compound 7] , what is its reported pIC50?
Reply | > 7.00

Ask | Quick check: pIC50 of C[C@@H]1NC(=O)[C@H](C2CC2)OC(=O)C2(/C=C/c3ccc4ccc(nc4c3)[C@@H](C)NC(=O)[C@@H]3CCCN(N3)C1=O)CCC(O)C2 (stereo partly drawn) [Compound 102] ?
Reply | > 7.00

Ask | Given the entry CO[C@@H]1CC/C=C/c2cccc(c2)[C@@H](C)NC(=O)[C@@H]2CCCN(N2)C(=O)[C@H](C)NC(=O)[C@H](C(C)C)OC(=O)[C@@H]1C [Compound 1] , report its measured pIC50.
Reply | > 7.00

Origin of measurements: patent US9642889B2
